- Condition info: human;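 note: human clinical data: severe hepatitis, meaning potentially life-threatening liver failure or clinically observed cases, the value counts how many indexed literature references report it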
Measured property: Hepatotoxicity (severe hepatitis)
Give bare numbers.

Use these answered entries as a reference point.
{"Molecule": "CCOC(=O)C(C)(CC)Oc1ccc(Cc2ccc(Cl)cc2)cc1 (centres undefined) [BECLOBRATE]", "Hepatotoxicity (severe hepatitis)": 2}
{"Molecule": "CCC1=C(C)CN(C(=O)NCCc2ccc(S(=O)(=O)NC(=O)N[C@H]3CC[C@H](C)CC3)cc2)C1=O [GLIMEPIRIDE]", "Hepatotoxicity (severe hepatitis)": 0}
{"Molecule": "CCCCCOC(=O)Nc1nc(=O)n([C@@H]2O[C@H](C)[C@@H](O)[C@H]2O)cc1F [CAPECITABINE]", "Hepatotoxicity (severe hepatitis)": 0}
{"Molecule": "CCOC(OCC)C(=O)OCC(=O)[C@]1(O)Cc2c(O)c3c(c(O)c2[C@@H](O[C@H]2C[C@H](N)[C@H](O)[C@H](C)O2)C1)C(=O)c1c(OC)cccc1C3=O [DETORUBICIN]", "Hepatotoxicity (severe hepatitis)": 0}
{"Molecule": "Nc1ccc(C(=O)[O-])cc1.[K+] [AMINOBENZOATE POTASSIUM]", "Hepatotoxicity (severe hepatitis)": 0}

Respectfully, I request Hepatotoxicity (severe hepatitis) for each entry included below.
1. CO/N=C(\C(=O)N[C@@H]1C(=O)N2C(C(=O)[O-])=C(C[n+]3ccc(N)n3CCO)CS[C@H]12)c1csc(N)n1 [CEFOSELIS]
2. CN1C[C@H](CC#N)C[C@@H]2c3cccc4[nH]c(Cl)c(c34)C[C@H]21 [LERGOTRILE]
3. CCC[C@@H]1C[C@@H](C(=O)N[C@@H]([C@H]2O[C@H](SC)[C@H](O)[C@@H](O)[C@H]2O)[C@H](C)Cl)N(C)C1 [CLINDAMYCIN]
4. OCc1cc(C(O)CNCCCCCCOCCCCc2ccccc2)ccc1O (centres undefined) [SALMETEROL]
5. CN(C)CCC=C1c2ccccc2COc2ccccc21 [DOXEPIN]

1. 0
2. 0
3. 0
4. 0
5. 0

Dear colleague, could you send me Hepatotoxicity (severe hepatitis) for each of the items below? Thanks.
1. C=COCC(F)(F)F [FLUROXENE]
2. CC(=O)N1CCN(c2ccc(OCC3COC(Cn4ccnc4)(c4ccc(Cl)cc4Cl)O3)cc2)CC1 (centres undefined) [KETOCONAZOLE]
3. CC(=O)OCC1=C(C(=O)O)N2C(=O)[C@@H](NC(=O)CSc3ccncc3)[C@H]2SC1 [CEPHAPIRIN]
4. O=c1[nH]c2ccccc2n1C1CCN(CCCC(c2ccc(F)cc2)c2ccc(F)cc2)CC1 [PIMOZIDE]
5. COc1ccc(C(=O)N2CCN(c3ccc4c(c3)CCC(=O)N4)CC2)cc1OC [VESNARINONE]
6. CCn1cc(C(=O)O)c(=O)c2ccc(C)nc21 [NALIDIXIC ACID]

1: 2; 2: 14; 3: 0; 4: 0; 5: 0; 6: 0

Could I get Hepatotoxicity (severe hepatitis) for every one of these entries?
1. CC(C)(Sc1cc(C(C)(C)C)c(O)c(C(C)(C)C)c1)Sc1cc(C(C)(C)C)c(O)c(C(C)(C)C)c1 [PROBUCOL]
2. CC(C)NCC1CCc2cc(CO)c([N+](=O)[O-])cc2N1 (centres undefined) [OXAMNIQUINE]
3. CC(=O)c1ccc2c(c1)N(CCCN1CCC(CCO)CC1)c1ccccc1S2 [PIPERACETAZINE]
4. NS(=O)(=O)c1cc(C2(O)NC(=O)c3ccccc32)ccc1Cl (centres undefined) [CHLORTHALIDONE]

1: 0; 2: 0; 3: 0; 4: 0

Below is a list of molecules. For each, state its recorded Hepatotoxicity (severe hepatitis).
1. O=C1CN(/N=C/c2ccc([N+](=O)[O-])o2)C(=O)N1CO [NIFURTOINOL]
2. CCc1cc2c(s1)N(C)C(=O)CN=C2c1ccccc1Cl [CLOTIAZEPAM]
3. Nc1ncnc2c1ncn2CCOCP(=O)(O)O [ADEFOVIR]
4. CCC(=O)O[C@@H]1CC(=O)O[C@H](C)C/C=C/C=C/[C@H](O)[C@H](C)C[C@H](CC=O)[C@H](O[C@@H]2O[C@H](C)[C@@H](O[C@H]3C[C@@](C)(O)[C@@H](OC(=O)CC)[C@H](C)O3)[C@H](N(C)C)[C@H]2O)[C@H]1OC [MIDECAMYCIN]
5. CC/C(=C(/CC)c1ccc(OP(=O)(O)O)cc1)c1ccc(OP(=O)(O)O)cc1 [DIETHYLSTILBESTROL DIPHOSPHATE]
6. ClC=C(Cl)Cl [TRICHLOROETHYLENE]
7. CN(C)C(=O)Oc1cc(OC(=O)N(C)C)cc(C(O)CNC(C)(C)C)c1 (centres undefined) [BAMBUTEROL]
8. NCCS [CYSTEAMINE]

0
0
0
1
0
14
0
0

Requested read-out: Hepatotoxicity (severe hepatitis). Entry: C[C@@H]1C[C@H](C)CN(S(=O)(=O)c2ccc(Cl)c(C(=O)O)c2)C1 [TIBRIC ACID] 0
